ASSAY: NCI Yeast Anticancer Drug Screen. Data for the bub3 strain (AID 167)
EXPERIMENTAL CONTEXT: S. cerevisiae bub3 mutant strain, at 50.0 µM, hits give high values
This is part of a sample that, as a whole, favours compounds with a hit. Of some 79,000 tested, about 15% had one in any assay.
Param threshold (60%) applies to growth inhibition; output 1 when value >= threshold, 0 when value < threshold.

>>> classification("COC(=O)C1(Cc2ccccc2C)Cc2ccc(C)cc2C1=O (stereo unspecified)")
1
>>> classification("CN(C)c1ccc(/C=C/c2ccnc3ccccc23)cc1Cl")
0
>>> classification("Oc1ccc(O)c2c(O)c3ccccc3c(O)c12")
1
>>> classification("CCOc1ccc2c(c1)[n+]([O-])c(S(=O)(=O)c1ccc(C)cc1)c(N)[n+]2[O-]")
1
>>> classification("Cc1ccc(S(=O)(=O)OCCCCOS(=O)(=O)c2ccc(C)cc2)cc1")
0

* * *

Overview of recorded growth inhibition for various molecules
ASSAY: NCI Yeast Anticancer Drug Screen. Data for the bub3 strain (AID 167)
EXPERIMENTAL CONTEXT: S. cerevisiae bub3 mutant strain, at 50.0 µM (retest, dose inferred, filed as 5.0), hits give high values
About 79,000 compounds went through this panel and 15% of them were active in at least one assay; those are over-represented in the sample as a whole. Active and inactive are the calls of the source. No stated cut-off is given here; in the data, active means growth inhibition above about 70%; inactive means the rest.
READOUT TYPE: growth inhibition

>>> test_value("CN1CCC(OC(=O)c2ccc3ncccc3c2)CC1")
"2% (inactive)"
>>> test_value("CCOC(=O)C1c2[nH]c3ccccc3c2CCN1C(=O)c1ccc(OC)o1 (configuration not stated)")
"76% (active)"
>>> test_value("COC(=O)C(CCC(=O)Cc1ccccc1)N1C(=O)c2ccccc2C1=O (configuration not stated)")
"86% (active)"
>>> test_value("COC(=O)c1ccc2ccccc2c1")
"29% (inactive)"
>>> test_value("S=C(N/N=C(/c1ccccc1)c1ccccn1)Nc1ccccc1")
"93% (active)"
>>> test_value("CCC[n+]1ccnc2ccccc21")
"-5% (inactive)"
>>> test_value("Cc1cc2c(C(C)C)c(O)c(O)c3coc(/c1=c1/c(C)cc4c(C(C)C)c(=O)c(=O)c5coc1c45)c32")
"97% (active)"
>>> test_value("CC(=O)N(N)c1ccccc1")
"77% (active)"
>>> test_value("Cc1nc(Nc2ccc(Cl)cc2)sc1C(=O)NNC(=O)C(=O)NN")
"-5% (inactive)"
>>> test_value("CC1=C(C)C(=O)C(C(C)(C)CC(=O)n2cc(F)c(=O)[nH]c2=O)=C(C)C1=O")
"63% (inactive)"
>>> test_value("C=CCc1cc([N+](=O)[O-])ccc1O")
"85% (active)"
>>> test_value("c1ccc(C2=NCCC(c3ccccc3)S2)cc1 (configuration not stated)")
"0% (inactive)"
>>> test_value("O=[N+]([O-])c1ccc2c(c1)/C(=C/c1ccc(O)cc1)c1ccccc1-2")
"85% (active)"
>>> test_value("N#Cc1c(-c2ccc([N+](=O)[O-])cc2)c(C#N)c(=O)n(NS(=O)(=O)c2ccccc2)c1S")
"87% (active)"
>>> test_value("COc1ccc(OCC(O)CN2CCN(c3cccc(Cl)c3)CC2)cc1 (configuration not stated)")
"8% (inactive)"
>>> test_value("C(=N\\NC1=NCCN1)/c1ccc(-c2cn3cc(/C=N/NC4=NCCN4)ccc3n2)cc1")
"99% (active)"
>>> test_value("Cc1cc(N=Nc2ccccc2C)c(N)cc1N")
"86% (active)"

* * *

ASSAY: NCI Yeast Anticancer Drug Screen. Data for the rad50 strain (AID 155);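 also: 0% = growth of vehicle-only cultures of the same strain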
EXPERIMENTAL CONTEXT: S. cerevisiae rad50 strain growth inhibition; at 5.0 µM (retest, dose inferred, filed as 0.5)
About 79,000 compounds went through this panel and 15% of them were active in at least one assay; those are over-represented in the sample as a whole. Calls of active or inactive are those of the source. Cut-off read from the data, not from the text of the source: active = growth inhibition above about 70%; inactive = the rest.
Labels: t (active), f (inactive)

>>> classification("c1ccc(C(c2ccccc2)c2ccc3ccccc3n2)cc1")
"f"
>>> classification("[N-]=[N+]=CC(=O)CCC(NC(=O)OCc1ccccc1)C(=O)OCc1ccccc1 (stereo not given)")
"t"
>>> classification("COC(=O)Cc1nc2ccccc2s1")
"f"
>>> classification("C[n+]1c(/C=C/c2ccc(N3CCCC3)cc2)sc2ccccc21")
"t"
>>> classification("CCN(CC)CCCNc1c2c(Cl)cc(Cl)cc2nc2nc(=O)[nH]c(C)c12")
"f"
>>> classification("O=C(Oc1c(I)ccccc1=O)c1ccc([N+](=O)[O-])cc1")
"f"
>>> classification("O=C(O)Cc1ccc2c(c1O)C(=O)c1ccccc1C2=O")
"f"
>>> classification("CC(C)Cn1cnc2c(SCc3ccccc3[N+](=O)[O-])nc(N)nc21")
"f"
>>> classification("CN(C)c1ccc(/C=C/c2ccnc3ccccc23)cc1Cl")
"f"
>>> classification("OC/C(=C\\c1ccccc1Br)c1ccccc1Br")
"f"
>>> classification("COc1ccccc1C1C(Cl)C(=O)N1n1cnc2ccccc2c1=O (stereo not given)")
"f"
>>> classification("O=C(NNc1ccccc1)C(O)C(O)C(O)C(O)C(O)C(O)C(O)CO (stereo not given)")
"f"
>>> classification("N#Cc1c(-c2ccc(Cl)c(Cl)c2)c(-c2ccc(Cl)c(Cl)c2)nn(CCO)c1=O")
"t"
>>> classification("CC(C)C1=CC2=CC(=O)C3C(C)(C)CCCC3(C)C2=C(O)C1=O (stereo not given)")
"t"
>>> classification("O=C(O)c1cc2c3ccccc3sc2c2ccccc12")
"f"

* * *

ASSAY: NCI Yeast Anticancer Drug Screen. Data for the cln2 rad14 strain (AID 165);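 also: 0% = growth equal to vehicle treated cultures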
EXPERIMENTAL CONTEXT: S. cerevisiae cln2 rad14 strain, at 50.0 µM (retest, dose inferred, filed as 5.0), hits give high values
About 79,000 compounds went through this panel and 15% of them were active in at least one assay; those are over-represented in the sample as a whole.
Param threshold (70%) applies to growth inhibition; output TRUE when value >= threshold, FALSE when value < threshold.

>>> classification("COc1ccc(Oc2c(OC)cc(NCCCCCNC(C)C)c3ncccc23)cc1")
"FALSE"
>>> classification("N[C@@H]1CCCC[C@@H]1N.O=C([O-])CN(CP(=O)([O-])[O-])CP(=O)([O-])[O-].[Pt+2]")
"FALSE"
>>> classification("CC(C)(CC#N)c1cc(CC(C)(C)c2cc(CC(C)(C)c3cc(CC(C)(C)C4(C)OCCO4)no3)no2)no1")
"FALSE"
>>> classification("COC(=O)C1(NC(=O)C(CC(=O)OCc2ccccc2)NC(=O)OCc2ccccc2)CCCCCC1 (configuration not stated)")
"FALSE"
>>> classification("Cc1ccc(S(=O)(=O)NNC(=O)c2sc(-c3nc(C)c(C(=O)NNS(=O)(=O)c4ccc(C)cc4)s3)nc2C)cc1")
"TRUE"
>>> classification("CC/C(=C(/CC)c1ccc([O-])cc1)c1ccc([O-])cc1.CC/C(=C(\\CC)c1ccc([O-])cc1)c1ccc([O-])cc1.O=C([CH-]C(=O)c1ccccc1)c1ccccc1.O=C([CH-]C(=O)c1ccccc1)c1ccccc1.O=C([CH-]C(=O)c1ccccc1)c1ccccc1.O=C([CH-]C(=O)c1ccccc1)c1ccccc1.[Ti+4].[Ti+4]")
"TRUE"
>>> classification("Oc1ccc(Br)cc1C=Nc1c(NC2CCCCC2)oc2ccc(Br)cc12")
"FALSE"

* * *

ASSAY: NCI Yeast Anticancer Drug Screen. Data for the bub3 strain (AID 167)
EXPERIMENTAL CONTEXT: S. cerevisiae bub3 mutant strain, at 5.0 µM (retest, dose inferred, filed as 0.5), hits give high values
The panel holds about 79,000 compounds, 15% with a hit somewhere; the sample as a whole holds those more often.
READOUT TYPE: growth inhibition (%)

>>> test_value("CCOC(=O)c1c(N2CCCC2)nsc1Nc1ccc(F)cc1")
1
>>> test_value("CCCC#CCCOC(=O)c1cc([N+](=O)[O-])cc([N+](=O)[O-])c1")
-11
>>> test_value("CCOC(=O)N/N=C/c1ccc([N+](=O)[O-])o1")
17
>>> test_value("CCC(C)(C)c1cc(Br)c(NS(=O)(=O)c2ccc(NC(C)=O)cc2)c(Br)c1")
-3
>>> test_value("O=C(Nc1ccc(O)cc1O)c1ccccc1")
11
>>> test_value("CCCCN(CCO)CCNc1ccc(C)c2sc3ccccc3c(=O)c12")
24
>>> test_value("CC(=O)NCC1OC2COC(c3ccccc3)OC2C(NC(=O)c2ccccc2)C1OC(=O)c1ccccc1 (stereo not drawn)")
8
>>> test_value("O=C(Nc1cc(-c2ccccc2)[nH]n1)c1ccccc1")
31

* * *

ASSAY: NCI Yeast Anticancer Drug Screen. Data for the sgs1 mgt1 strain (AID 161);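 also: 0% = growth of cultures given vehicle only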
EXPERIMENTAL CONTEXT: S. cerevisiae sgs1 mgt1 strain, at 50.0 µM, hits give high values
Compounds without any hit were thinned out: in the full panel of roughly 79,000, 15% have a hit.
READOUT TYPE: growth inhibition (%)

>>> test_value("S=C(CSc1ccccc1)Nc1cccc2ccccc12")
31.3
>>> test_value("CSC(=S)SC(SC)S(C)(=O)=O (centres undefined)")
99.3
>>> test_value("OCC1CCCCCCCCCCC1")
94.3
>>> test_value("Cc1cc(O)c(/C=N/c2nc(-c3cccc([N+](=O)[O-])c3)cs2)c(=O)o1")
51.2
